# target or system: EP4 (Homo sapiens (Human), UniProt P35408)
# Sequence (P35408 whole entry): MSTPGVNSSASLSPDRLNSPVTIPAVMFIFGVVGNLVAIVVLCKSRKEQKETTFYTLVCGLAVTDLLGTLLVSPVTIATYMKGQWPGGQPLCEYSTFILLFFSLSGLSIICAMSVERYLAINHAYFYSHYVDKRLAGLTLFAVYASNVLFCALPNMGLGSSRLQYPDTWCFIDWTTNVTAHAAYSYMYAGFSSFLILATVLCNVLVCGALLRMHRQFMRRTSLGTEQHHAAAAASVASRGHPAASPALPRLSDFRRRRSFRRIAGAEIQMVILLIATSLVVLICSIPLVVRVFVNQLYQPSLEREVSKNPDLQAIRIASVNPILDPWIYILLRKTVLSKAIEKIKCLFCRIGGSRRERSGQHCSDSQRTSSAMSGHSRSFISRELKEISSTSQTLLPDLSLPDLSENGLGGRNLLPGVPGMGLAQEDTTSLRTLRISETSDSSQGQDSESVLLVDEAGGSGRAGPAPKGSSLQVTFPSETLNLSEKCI
# assay text: hEP4 cAMP assay (BT549 breast cancer cells, HTRF cAMP)
# Format: cell-based
# measurement setup: antagonistic activity, PGE2 6 nM
pIC50: −log10 of the molar value.
measure name: pIC50

- molecule: "CCOc1cc(-c2cc(NCCc3cc4ccoc4cc3F)ncn2)ccc1OC(C)C(=O)O (stereo not drawn)"
  pIC50: 6.49

(A) Fc1cc2ncccc2c(F)c1CCNc1cc(-c2ccc3cnccc3c2)ncn1
(B) CCOc1cc(-c2cc(NCCc3ccc4ccccc4c3C)ncn2)sc1C(=O)NS(N)(=O)=O
Query string: Kindly identify the item with the lower pIC50 figure among these two: A and B // respond with label for picked entry
Result string: A

(I) CCOc1cc(-c2cc(NCCc3cc4ccccc4cc3OC(C)C)ncn2)ccc1OCC(=O)O
(II) CSc1cc(-c2cc(NCCc3ccc4scc(C#N)c4c3)ncn2)ccc1C(=O)O
(III) CCOc1cc(-c2cc(NCCc3cc4c(cc3OC)CCCC4)ncn2)ccc1OCC(=O)O
(IV) CCCc1cc(-c2cc(NCCc3cc(F)c4sccc4c3)ncn2)ccc1CC(=O)O
Query string: Ascending sort, pIC50. To answer, write out the labels according to the requested order.
Result string: II, III, I, IV
(II: 6.60, III: 6.89, I: 7.27, IV: 7.49)

(I) CSc1cc(-c2cc(NCCc3ccc4c(c3)CCCO4)ncn2)ccc1C(=O)O
(II) CCOc1cc(-c2cc(NCCc3cc4cccnc4c(F)c3Cl)ncn2)sc1C(=O)O
Query string: Higher pIC50: I or II ? Answer by stating the label of the chosen item.
Result string: II

(A) Cc1c(CCNc2cc(-c3ccc(C(=O)O)c(OC(F)F)c3)ncn2)ccc2ccccc12
(B) CCOc1cc(-c2cc(NCCc3cc(Cl)c4c(c3)OCCO4)ncn2)ccc1C(=O)O
(C) CCOc1cc(-c2cc(NCCc3ccc4cc[nH]c4c3)ncn2)ccc1OC(C)C(=O)O (stereo not drawn)
Query string: Let's sort these by pIC50, smallest first. Go ahead? Return value: ordered labels per request.
Result string: B, C, A
(B: 6.07, C: 6.54, A: 7.33)
